Test: in vivo
Assay type: in vivo, broiler chickens (Ross 308)
Conditions: male, Ross 308, in vivo, po, 25 mg/kg, TIA oral bolus 25 mg/kg BW; chickens not pretreated with AFB1 (control feed for 2 weeks); n = 9; mean ± SD; read-out: Tmax, Control

smiles code: C=C[C@]1(C)C[C@@H](OC(=O)CSCCN(CC)CC)[C@]2(C)[C@H](C)CC[C@]3(CCC(=O)[C@H]32)[C@@H](C)[C@@H]1O
Tmax / min: 26.4

====

Assay: in vivo
Assay type: in vivo, broiler chickens (Ross 308)
Conditions: male, Ross 308, in vivo, po, 25 mg/kg, TIA oral bolus 25 mg/kg BW; chickens pretreated with AFB1 contaminated diet (20 µg/kg feed for 2 weeks); n = 8; mean ± SD; read-out: T1/2λz, Treatment (converted)

smiles code: C=C[C@]1(C)C[C@@H](OC(=O)CSCCN(CC)CC)[C@]2(C)[C@H](C)CC[C@]3(CCC(=O)[C@H]32)[C@@H](C)[C@@H]1O
unit: h
half-life: 6.3
